This listing pairs binders with measured MFI.
SYSTEM TESTED: EGFRvIII expressed on cells (F98-npEGFRvIII, NCI-H522-EGFRvIII, U87-KO-EGFRvIII) (human)
EXPERIMENTAL DETAILS: flow cytometry, F98-EGFRvIII cells; 2nd Ab only 322
Enter the number alone.

20E12 (antibody, V domains shown) VH: EVNLVESGGGLVKPGGSLRLSCEASGFTFSYAWMSWVRQAPGKGLEWVGRIKSIADGGATDYAAPVRNRFTISRDDSRNTLYLEMHSLKTEDTAVYYCTTIPGNDAFDMWGQGTMVTVSS VL: DIVLTQSPLSLSVTPGEPASISCRSSQSLLYSNGKNYLDWFLHKPGQSPQLLIYLGSNRASGVPDRFSGSGSGIDFILKISRVEAEDVGVYYCMQAQQTPITFGQGTRLEIK; 3980
32G8 (antibody, V domains shown) VH: EVNLVESGGGLVKPGGSLRLSCEASGFTFSYAWMSWVRQAPGKGLEWVGRIKSITDGGVIDYAAPVRNRCTISRDDSRNTLYLEMHSLKTEDTAVYYCTTIPGNDDFDMWGQGRMVTVSS VL: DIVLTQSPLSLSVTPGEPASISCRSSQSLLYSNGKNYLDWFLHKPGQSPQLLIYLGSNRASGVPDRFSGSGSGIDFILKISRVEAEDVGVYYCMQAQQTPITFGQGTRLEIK; 3730

Continue with the binder presented below.
For record 20G5 (antibody, V domains shown) VH: EVQLVESGGDLVKPGGSLRLSCAASGFTFTNAWMSWVRQAPGKGLEWVGRIKSKIDGGTTDYAAPVKGRFIISRDDSKNTLSLQMNSLKTEDTAMYYCTTAPGGPFDYWGQGSLVTVSS VL: DIVLTQSPLSLPVTPGEPASISCRSSQSLLYSDRRNYLDWFLQKPGQSPHLLIYLGSYRASGVPDRFSGSGSGTDFTLKISRVEAEDVGVYYCMQALQIPITFGQGTRLEIK the listed MFI is 4640
